These data points were gathered from the DeepSol protein solubility set.

# Test: soluble on expression in E. coli; label from the status in PepcDB or PDB records

Biopolymer sequence	soluble on expression in E. coli
MGSDKIHHHHHHMNYLVISPFYPENFQPFTIELAKKEGVTVLGIGQEPYDQLPEELRNALTEYFRVEDLENIDEVKRAAAFLIYKHGPIDRVESHNEYWLENDAALREQFNIFGAKPKHLKKTKFKSEMKKYFKKAGVPVVPGVVVKSERDFGRALKNVGFPMIAKPDNGVGASGTFKIENKEDFDRFVETWDGATIYFLEKFVNSSIITTYDGLLDHEGNVVFETGLTYVHTPLELMLSRKDNAYFIEKELDPQLVKYGRAIIKAFGMRERFFHIEFFKDGDDYIAIEYNNRMAGGFTVEAYNYAHSIDLFRDYANVATGGTVEERRFEPQYCLVATRRDTTEYVHSADDIHQKFAGKIKTVKRMPDAFAELQGNDAYLLVTESKKELDEMIAYIGLTK	not soluble
EKLTLAEKVWRDHVVSKGENGEPDLLYIDLQLLHEVTSPQAFDGLRMTGRKLRHPELHLATEDHNVPTEGIKTGSLLEINDKISRLQVSTLRDNCEEFGVRLHPMGDVRQGIVHTVGPQLGATQPGMTIVCGDSHTSTHGAFGSMAFGIGTSEVEHVMATQTLPLKPFKT	not soluble
MAHHHHHHMQQLEQELSLRQSAIETREQQLEMVQLDGARGREAIMRERHSIEEVRRTVRVERCRQRRLWIHQIKEMNAKVLEQVRLLAEERKKNCEQATAKEDAAERAFAADIKMIEEYLPKLISLEDIPVNPEETDIIRRQFDEVFTQGEQTYLASAEEEQARKERLGRGLEVYRQRMLDDYVGKENGKLHDAEATERHLSSVVDQVLN	not soluble
MPEKKSLLEVPPELVFSGPFDHVITTYMTLTNISQSPVCFLVKTTVPNSYCVRPNRGILNIGDSKQIEVMLQPLEKVPPDAKQHKFLVQSCVAPSIDVSDLESVWKNVKPDELTYNRLVVTFVDNTDSKSNIECEICTLEFSSVVDNQIPRILQCGHSICQSCASKLAKNCVILCPFCRNETNVSSVASLPKNFALLQAIDQKTLRVPPLEIAKLRQQLSCQLSKLEEQVSKTDKSIKAVGRAQLSNLKDGREFQERKDSIVSYYASIRETINALENEAIGKLHTIADMNVSKNALLVAELSEILKHQNLKIAELKLSMEMDDVELATRSLTDSGTECAVVKPAVLDVALTFPEIDKMALLSMTTKFPSNFSTV	not soluble

* * *

# Test: soluble on expression in E. coli; label from the status in PepcDB or PDB records
Experimental endpoint: soluble on expression in E. coli

Solved entries (count: 4):
Biopolymer sequence	soluble on expression in E. coli
MNDHKALKIFLMAAEKRNFAQVARELSMTAAGVTRAIAALECDLGVQLFVRTTRQVSLTTDGAVFAAQIQPAVEALENARRDVRNAHKADEGRLRISAPTWLGKTVLPPILSGFRELYPKMCFEISLSDGLVNIVDDDYDLAIRISSAPSDKFTIWRKIRAVPRILVAAPGSRFTQMKHPSDLTPDDCLAYSGESRRENWILSDGGSSITITAGRAFSANNGEVLADMAADGAGVAMLPGFHIAEHIRSGRLVHVLPGWAPPELWLTLYYPPYQTLPPRIATFSKFFEEQLTAHMVALD	not soluble
MGSDKIHHHHHHMETLYLKTLIVTAEKGSFSKAAAELCITQSAVSQRVKFLEERYGCELLDRSGPVMMLTAAGEAVVRKAQAILDIEKTLQDELKKFTGRQRLSICCTPSFGIAHMPKVLNRFMLRNADIVDLKFMFYSPEQAVKGLAEREFDIGIIEHCEDLDLADFHTATLPRDELVFVSAPSLGIPTPLVTIERLFEERLITRKDGCSSKKLLRLNLASIGKDLEGFRSTVVYDDLHLTVDTVLDGGGVAFVSSCLVNKYLENGQLKQHRVEGFCHSRQRTVALSRSKVQDRLVSDFLACLDTVFTDQCHRSSCPT	not soluble
SKDFMISAKGTFTYAKNQYMEIDEPDYEYAYMSQVGRPLNQYKGYIALGLFKDQEEIDNSPKQILTGVVQPGDIKYADLNNDGKIDGNDQTYIGNPELPQISYGLGVSIQYKKWDASIFFQGVGKRSIMLSDIHPFGGESYGVMQFVADNHWTEANPNPEAMYPRLTNGKNNNNNPNSTYWLRDGSYIRLKNVELGYSYKFLRAYISGQNLLTFSKFKLWDPELYTSNGLKYPTQIMGSIGLQFTF	not soluble
MGSDKIHHHHHHLVGISHDTDQRILEQAMNMIRENGEDQLSLRKLARAIGLTTGAFYKHFATKDALLRAVTQLLSQREEAEMAQVLGQITDPEEKLLVMAAEILERFEADPHLMHFLFFNPAARDVLKVEPGQFGFYDQVIQLIKDVLRKRGITIDPQILFIQLWSFIQGYGLLIDSGITSYDPNLVRKTLKDLLEVSND	not soluble

Now for another entry.
Query string: Which soluble on expression in E. coli is reported for this sequence? MNDHLKRGNLLWEGSRMFLPEHKQSLLERKRLKQKLQKPILDPDKLEEMNQTLCAAMEFAQDITVSCFQDGEIVCCTGKICRYEEFEKAVWIKGDEDQLYKLKLDQVLDI
Result string: not soluble
